Experiment: inhibitors of HIV-1 Env-driven cell-cell fusion, primary screen, HeLa-JRFL effector, CEM21 target cells, luciferase (AID 651610);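 note: 0% = plate neutral controls and 100% = maraviroc near 300 nM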
Conditions: at 16.7 µM unless noted
In all, about 360,000 compounds went through this assay and about 3,900 (1.1%) were called active.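 Rule for the calls: active = mean replicate inhibition score of at least 50 and every replicate individually at or above 50; inconclusive = only one of the two criteria met; inactive = mean below 50 and not all replicates reaching 50.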 The list comes from a sample in which actives are over-represented; it also holds close analogues and randomly drawn compounds.
Outcomes: active, inactive

> print(dat)
                              smiles.string  discrete.label
1  CN1CCN(C(=O)C[C@@H]2C[C@H]3c4cc(NC(=O)NC5CCCC5)ccc4O[C@H]3[C@H](CO)O2)CC1        inactive
2  COc1ccccc1NC(=O)CSc1nnc(-c2ccoc2C)n1CCc1ccccc1          active
3       CCn1c(SCC(=O)NC2CCCC2)nnc1-c1ccoc1C        inactive
4  C[C@@H]1CN([C@@H](C)CO)C(=O)Cc2cc(NC(=O)Nc3ccc4c(c3)OCO4)ccc2O[C@@H]1CN(C)C(=O)Nc1ccc2c(c1)OCO2        inactive
5  CN(C(=O)CC(NC(=O)c1ccccc1)(c1ccccc1)c1ccccc1)c1ccccc1          active
6  C[C@H]1CN([C@@H](C)CO)C(=O)Cc2cc(NS(=O)(=O)c3ccc(F)cc3)ccc2O[C@H]1CN(C)Cc1ccc(C(F)(F)F)cc1        inactive
7  COc1ccccc1NC(=O)CSc1nnc(Cn2nnc(-c3ccccc3)n2)n1-c1ccccc1        inactive
8  CCc1cnc(N2[C@H](C#N)[C@H](c3ccc(C4=CCCC4)cc3)[C@@H]2CO)s1        inactive

---

Experiment: inhibitors of HIV-1 Env-driven cell-cell fusion, primary screen, HeLa-JRFL effector, CEM21 target cells, luciferase (AID 651610);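 note: 0% = plate neutral controls and 100% = maraviroc near 300 nM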
Conditions: at 16.7 µM unless noted
Out of some 360,000 compounds screened, about 3,900 (1.1%) were called active.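 The calls were made as follows: active = mean replicate inhibition score of at least 50 and every replicate individually at or above 50; inconclusive = only one of the two criteria met; inactive = mean below 50 and not all replicates reaching 50.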 What follows is part of a selection rich in actives, with near analogues and random picks from the rest.
Outcomes: active, inactive

> print(dat)
                                    compound  discrete.label
 1  Cc1cc(NC(=O)c2ccco2)c(=O)n(Cc2c(F)cccc2Cl)c1        inactive
 2  CC1=C(C(=O)N(C(C)C)C(C)C)CC(CC(=O)NCC2CCCCC2)C(=O)N1Cc1ccccc1 (stereo unspecified)          active
 3  CC(C)CC#Cc1cnc2c(c1)C(=O)N([C@@H](C)CO)C[C@H](C)[C@@H](CN(C)C(=O)c1cccc(F)c1)O2        inactive
 4          COc1ccccc1-c1c(C#N)c(N)nc2c1CCC2        inactive
 5      CC(C)c1cc(C(=O)NC2CCCCCC2)c2ccccc2n1        inactive
 6  CCc1ccc(CN(C)C(=O)CCc2nnc(-c3ccc(-c4ccccc4)cc3)o2)nc1          active
 7      CC1CCN(C(=O)c2ccc3c(c2)NC(=O)CN3)CC1        inactive
 8  N#C[C@@H]1[C@@H](c2ccc(-c3ccccc3F)cc2)[C@@H](CO)N1C(=O)c1ccccn1        inactive
 9  O=C(C[C@H]1CC[C@H]2[C@@H](COC[C@@H](O)CN2Cc2nccs2)O1)NCc1ccccc1Cl        inactive
10  CO[C@@H]1CN(C)C(=O)c2cc(NC(C)=O)ccc2OC[C@H](C)N(C(=O)CC2CC2)C[C@@H]1C        inactive
11  Cc1cc(S(=O)(=O)Nc2ccc(C(=O)NCC(c3ccco3)N3CCCC3)cc2)ccc1F (stereo unspecified)          active
12  CC1CCCC(C)N1C(=O)CN1CCN(c2nc(-c3ccc(F)cc3)cs2)CC1 (stereo unspecified)          active
13    NC(=O)c1sc2nc3c(c(-c4ccccc4)c2c1N)CCC3          active
14         C=CCOCCN(C)C1=NS(=O)(=O)c2ccccc21        inactive
15  C[C@@H]1CN([C@H](C)CO)C(=O)c2cc(NS(=O)(=O)c3ccccc3)ccc2O[C@H]1CN(C)C(=O)Nc1ccc2c(c1)OCO2        inactive
16  COc1ccccc1CC1(C)C(=O)Nc2ccc(OC(F)(F)F)cc21 (stereo unspecified)        inactive
17  C[C@@H]1CN([C@@H](C)CO)C(=O)c2cc(-c3ccccc3F)cnc2O[C@@H]1CN(C)Cc1cccc(F)c1        inactive
18  C[C@H]1CN([C@@H](C)CO)S(=O)(=O)c2ccc(Br)cc2O[C@H]1CN(C)Cc1ccccn1        inactive
19  CCNC(=O)Nc1ccc2c(c1)C(=O)N(C)[C@H]1CC[C@@H](CC(=O)N[C@@H](C)c3ccccc3)O[C@H]1CO2        inactive
20  COc1ccc(/C=N/N(C)C2=NS(=O)(=O)c3ccccc32)cc1OC        inactive
21  Cc1ccc(CC2(C)C(=O)Nc3ccc(OC(F)(F)F)cc32)cc1 (stereo unspecified)        inactive
22  COc1ccc(S(=O)(=O)N2CCOCC2)cc1NC(=O)COc1ccccc1        inactive
23  C[C@@H]1CN([C@@H](C)CO)C(=O)c2cc(NC(=O)Cc3ccccc3)ccc2O[C@@H]1CN(C)S(=O)(=O)c1ccccc1        inactive
24  COc1ccc(-c2nn(C)c(=O)c3ccccc23)cc1CNC(=O)C1CCCCC1        inactive
25  COc1cccc(CNCCc2c[nH]c3ccccc23)c1OCc1ccccc1F          active
26  COc1ccc(C(CCNCc2ccccc2F)c2ccc(F)cc2)cc1 (stereo unspecified)        inactive
27  C[C@@H]1CCCCO[C@@H](CN(C)S(=O)(=O)c2ccc(F)cc2)[C@@H](C)CN([C@@H](C)CO)C(=O)c2cc(NC(=O)Nc3ccc(F)cc3)ccc2O1        inactive
28  COc1ccc(C(CNC(=O)c2ccc(NS(=O)(=O)c3ccc(F)c(C)c3)cc2)N(C)C)cc1 (stereo unspecified)        inactive
29  O=C(NCc1ccccn1)[C@@H]1[C@@H](CO)[C@@H]2Cn3c(ccc(/C=C/c4ccccc4)c3=O)[C@H]1N2CC1CC1        inactive
30  O=C(Nc1cccn(Cc2c(Cl)cccc2Cl)c1=O)c1ccc(Cl)cc1          active
31  C[C@H]1CCCCO[C@@H](CN(C)C(=O)c2ccccc2)[C@@H](C)CN([C@@H](C)CO)C(=O)c2cc(NS(=O)(=O)c3ccccc3)ccc2O1        inactive
32  COc1ccc(S(=O)(=O)N(C)C[C@@H]2OCCCC[C@H](C)Oc3ccc(NC(=O)NC(C)C)cc3C(=O)N([C@@H](C)CO)C[C@@H]2C)cc1        inactive
33      CN(c1ccc2nc3ccccc3c(=O)n2n1)C1CCCCC1          active
34  C/C=C/c1cnc2c(c1)C(=O)N([C@H](C)CO)C[C@H](C)[C@@H](CN(C)C(=O)Nc1ccc(C(F)(F)F)cc1)O2        inactive
35  COc1ccc(S(=O)(=O)N(C)C[C@H]2OCCCC[C@@H](C)Oc3ccc(NC(=O)c4ccncc4)cc3C(=O)N([C@H](C)CO)C[C@@H]2C)cc1        inactive
36  C[C@H](CO)N1C[C@H](C)[C@@H](CN(C)S(=O)(=O)c2ccccc2F)Oc2ncc(C#Cc3ccccc3F)cc2C1=O        inactive

---

Test: inhibitors of HIV-1 Env-driven cell-cell fusion, primary screen, HeLa-JRFL effector, CEM21 target cells, luciferase (AID 651610);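 note: 0% = plate neutral controls and 100% = maraviroc near 300 nM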
Conditions: stronger effect = higher value; at 16.7 µM unless noted
The whole screen tested about 360,000 compounds, of which about 3,900 (1.1%) were called active. The full list was thinned out, with actives kept by preference.
Overview of recorded inhibition for various compounds
measured attribute: inhibition

> print(dat)
                              smiles.string                  value.reported
1  C[C@@H]1CCCCO[C@@H](CN(C)Cc2ccncc2)[C@@H](C)CN([C@@H](C)CO)C(=O)c2cc(NC(=O)Nc3ccc(F)cc3)ccc2O1               -4.96% (inactive)
2  COc1ccccc1-c1ccc2c(c1)O[C@@H](CN(C)C(=O)Nc1ccccc1)[C@H](C)CN([C@@H](C)CO)S2(=O)=O               -37.6% (inactive)
3  C[C@H](CO)N1C[C@H](C)[C@H](CN(C)CC2CCCCC2)OCCCC[C@H](C)Oc2ccc(NC(=O)c3ccncc3)cc2C1=O               -17.1% (inactive)
4  COc1cccc(NC(=O)N[C@@H]2CC[C@H](CC(=O)Nc3ccccc3)O[C@@H]2CO)c1               -24.4% (inactive)
5  C[C@H]1CN([C@@H](C)CO)S(=O)(=O)c2ccc(C#CC3CCCC3)cc2O[C@@H]1CN(C)C(=O)c1cccc(F)c1                33.9% (inactive)
6  CO[C@H]1CN(C)C(=O)c2cc(NC(=O)c3ccccc3)ccc2OC[C@H](C)NC[C@H]1C               -18.7% (inactive)
7  COc1ccc(NC(=O)N(C)C[C@@H]2Oc3ccc(NC(=O)Cc4cn(C)c5ccccc45)cc3CC(=O)N([C@@H](C)CO)C[C@H]2C)cc1               -18.3% (inactive)
8  CCOC(=O)c1c(C)[nH]c(C)c1S(=O)(=O)NCCCc1ccco1  -4.62% [at 12.3 µM] (inactive)
